This section presents pIC50 values reported for Angiotensin-converting enzyme (Oryctolagus cuniculus, UniProt P12822) in the literature.
pIC50: −log10 of the molar value.

| Smiles representation | pIC50 |
| --- | --- |
| CCCCc1nc(Cl)c(C(=O)N[C@@H](CCSC)C(=O)O)n1C | 6.18 |

Measured pIC50 of CC(C)CC(=O)N[C@H](C(=O)N[C@H](C(=O)N[C@@H](CC(C)C)[C@@H](O)CC(=O)N[C@@H](C)C(=O)N[C@@H](CC(C)C)[C@@H](O)CC(=O)O)C(C)C)C(C)C : < 4.00

Measured pIC50 of CCSCC[C@@H](NC(=O)[C@H](CS)Cc1ccccc1)C(=O)O : < 6.00
